# Test system: SW-620 colon
# method-notes: NCI-60 one-dose screen, 48 h (100 = growth as untreated, 0 = no growth, -100 = all killed)
# details: 10 µM unless noted
Compounds without any hit were thinned out: in the full panel of roughly 83,000, 20% have a hit.
endpoint-name: growth (%)

molecule | endpoint-name | units-label | measured-value
Clc1ccc(/C=C/c2nc(N3CCOCC3)c3nc(Cl)c(Cl)cc3n2)cc1 | growth | % | 114
O=C(CCCn1c2c(sc3ccccc32)c(=O)n2nnc(-c3ccccc3)c12)NCCc1cnc[nH]1 | growth | % | -84.5
Cn1c(=O)c2c(nc3n2CCN(CCc2ccc(OCCN4CCOCC4)cc2)C3)n(C)c1=O | growth | % | 105
COC1=CC(c2ccc[nH]2)=N/C1=C\c1[nH]c(C)c(C(=O)CCC(=O)Oc2ccc3c(c2)CCC2C3CC[C@]3(C)[C@@H](O)CC[C@@H]23)c1C (some centres undefined) | growth | % | -51.1
COc1ccc(OC)c(NC(=O)c2cc(S(=O)(=O)N3CCc4ccccc43)ccc2OC)c1 | growth | % | 96.7
C=CCOc1ccc(/C(O)=C2\C(=O)C(=O)N(c3nccs3)C2c2ccccc2F)cc1 (centres undefined) | growth | % | 103
COc1cc(/C=C/C(=O)c2ccc(NC(=O)CN3CCN(c4cc5c(cc4F)c(=O)c(C(=O)O)cn5C4CC4)CC3)cc2)cc(OC)c1OC | growth | % | 6.38
COc1ccc(C2CC(c3cccs3)=NN2c2ccc(S(=O)(=O)NC(=O)Nc3ccc(C)cc3)cc2)cc1 (centres undefined) | growth | % | 106
COc1cc2c3c(c(=O)oc2cc1OS(=O)(=O)c1ccc(C(F)(F)F)cc1)CCCCC3 | growth | % | 102
